Target: UniProt:P21728
Sequence (P21728 with tags, fused parts or gaps): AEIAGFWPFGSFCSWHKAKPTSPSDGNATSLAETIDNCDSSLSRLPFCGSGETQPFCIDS
Assay: Overall pattern of binding: Dopamine Receptor peptides
Conditions: first symbol of the cell
pKd: −log10 of the molar value.
readout-type: pKd

Bench note: what pKd did `CC(=O)OCC[N+](C)(C)C` show?
< 4.22

----------
Molecular target: insulin receptor peptide INSR 157–166 (Homo sapiens)
Construct: INSR 157–166; purchased RS Synthesis (Louisville, KY, USA); host or cells: chemical synthesis
Test: biochemical
Type: binding
Details: UV spectrophotometry; read-out: Kd (µM) INSR 157–166
readout-type: Kd (µM)
Give the quantity in µM, number only.

Bench note: what Kd did N[C@@H](Cc1ccccc1)C(=O)O [Phenylalanine, phenylalanine] show?
90

And the next one, N[C@@H](Cc1ccc(O)cc1)C(=O)O [Tyrosine, tyrosine] ?
90

And the next one, N[C@@H](Cc1ccc(O)c(O)c1)C(=O)O [L-DOPA, L-3,4-dihydroxyphenylalanine] ?
90

And the next one, CNC[C@H](O)c1cccc(O)c1 [Phenylephrine, phenylephrine] ?
70

And the next one, COc1ccc2[nH]cc(CCNC(C)=O)c2c1 [Melatonin, melatonin] ?
80

And the next one, O=C1OC(C(O)CO)C(=O)C1=O (centres unmarked) [Dehydro Asc, dehydroascorbic acid] ?
150

Hey, just so you know, these numbers are from paper PMC7504417.
